test system: COR-L 105; experiment: relative viability (nuclei count vs DMSO), 5 days (fraction); higher = more cells survive; conditions: first compound 8 µM
Entries and their relative viability

// below: answered molecules
molecule	relative viability
O=c1cc(-c2cccc3c2Sc2ccccc2S3)oc(N2CCOCC2)c1 + CC(=O)c1c(C)c2cnc(Nc3ccc(N4CCNCC4)cn3)nc2n(C2CCCC2)c1=O [Palbociclib] (partner 0.5 µM)	0.416
O=c1cc(-c2cccc3c2Sc2ccccc2S3)oc(N2CCOCC2)c1 + C[C@]1(O)C[C@@H](c2nc(-c3ccc4ccc(-c5ccccc5)nc4c3)c3c(N)nccn32)C1 [Linsitinib] (partner 1 µM)	1.07

Continue with the next molecule.
Incoming: Record request: relative viability value, item O=c1cc(-c2cccc3c2Sc2ccccc2S3)oc(N2CCOCC2)c1 + CS(=O)(=O)CCNCc1ccc(-c2ccc3ncnc(Nc4ccc(OCc5cccc(F)c5)c(Cl)c4)c3c2)o1 [Lapatinib] (partner 2 µM)
Outgoing: 0.386

----------
tested on: NCI-H460; test: relative viability (nuclei count vs DMSO), 5 days (fraction); higher = more cells survive; settings: first compound 0.6325 µM
measurement-kind: relative viability

Incoming: Record request: relative viability value, item COCC1(CO)C(=O)C2CCN1CC2 (stereo not drawn) [PRIMA-1MET] + Cc1nc(NC(=O)N2CCC[C@H]2C(N)=O)sc1-c1ccnc(C(C)(C)C(F)(F)F)c1 [Alpelisib] (partner 2 µM)
Outgoing: 0.358

Incoming: // same read-out, input: COCC1(CO)C(=O)C2CCN1CC2 (stereo not drawn) [PRIMA-1MET] + Cc1nc(Nc2ncc(C(=O)Nc3c(C)cccc3Cl)s2)cc(N2CCN(CCO)CC2)n1 [Dasatinib] (partner 0.075 µM)
Outgoing: 0.321

Incoming: // same read-out, input: COCC1(CO)C(=O)C2CCN1CC2 (stereo not drawn) [PRIMA-1MET] + NC(=O)Nc1cc(-c2cccc(F)c2)sc1C(=O)N[C@H]1CCCNC1 [AZD7762] (partner 0.2 µM)
Outgoing: 0.382

----------
Entries and their relative viability
test system: EPLC-272H; assay: relative viability (nuclei count vs DMSO), 5 days (fraction); higher = more cells survive; settings: first compound 0.03162 µM
API doc: respond with a numeric literal and nothing else, no unit.

Incoming: Query the reported relative viability for EPLC-272H; item: O=c1cc(N2CCOCC2)oc2c(-c3cccc4c3sc3ccccc34)cccc12 + C[C@]1(O)C[C@@H](c2nc(-c3ccc4ccc(-c5ccccc5)nc4c3)c3c(N)nccn32)C1 [Linsitinib] (partner 1 µM)
Outgoing: 1.17

Incoming: // same read-out, input: O=c1cc(N2CCOCC2)oc2c(-c3cccc4c3sc3ccccc34)cccc12 + CC1(C)CCC(c2ccc(Cl)cc2)=C(CN2CCN(c3ccc(C(=O)NS(=O)(=O)c4ccc(N[C@H](CCN5CCOCC5)CSc5ccccc5)c(S(=O)(=O)C(F)(F)F)c4)cc3)CC2)C1 [Navitoclax] (partner 0.5 µM)
Outgoing: 1.05

Incoming: // same read-out, input: CCN(CC)CCCCNc1ncc2cc(-c3cc(OC)cc(OC)c3)c(NC(=O)NC(C)(C)C)nc2n1 + Nc1nc2[nH]cc(CCc3ccc(C(=O)N[C@@H](CCC(=O)O)C(=O)O)cc3)c2c(=O)[nH]1 [Pemetrexed] (partner 0.2 µM)
Outgoing: 0.271

Incoming: // same read-out, input: O=c1cc(N2CCOCC2)oc2c(-c3cccc4c3sc3ccccc34)cccc12 + Cc1nc(Nc2ncc(C(=O)Nc3c(C)cccc3Cl)s2)cc(N2CCN(CCO)CC2)n1 [Dasatinib] (partner 0.075 µM)
Outgoing: 0.424
